Biological target: SARS-CoV-2 NSP3 macrodomain (Mac1) (Severe acute respiratory syndrome coronavirus 2)
Assay: biochemical
Type: binding
Details: dose-response; read-out: SARS CoV-2 macrodomain HTRF assay: Ki
Recorded Ki values for a group of molecules are listed next.
reported metric: Ki (µM)

1. OC1(CNc2ncnc3[nH]ccc23)CCCOC1 (stereo not drawn); 160
2. CC(C)(O)[C@H]1CCCN1c1ncnc2[nH]ccc12; 4.7
3. CC(O)C1CCCN1c1ncnc2[nH]ccc12 (stereo not drawn); 51
4. OC1(CNc2ncnc3[nH]ccc23)CCC(F)(F)CC1; 130
5. OC1(CNc2ncnc3[nH]ccc23)CCC2(CC1)OCCO2; 200
6. OC1(CNc2ncnc3[nH]ccc23)CC2CCC1CC2 (stereo not drawn); 77

Reference source for all entries: paper doi:10.1101/2024.08.25.609621
